Give self-aminoacylation for every item shown.
Tested on: biotinyl-Met-oxazolone
Assay: self-aminoacylation, catalytic enhancement (BMO) (fold over background); higher = more active; k-Seq, kA / k0A0; sequences stand for … in GGGAAUGGAUCCACAUCUACGAAUUC…UUCACUGCAGACUUGACGAAGCUG
Variants at the floor of the assay were thinned out.
Field format: numeric only.

Prompt: Look at this sequence and give its reported self-aminoacylation. AGUCGCCUAGGUCAUCGGGUG [Fam2.2 aminoacylation ribozyme variant]
Completion: 6.31

Prompt: Item: CCACACUUCAAGCACUUGGUC [Fam1B.1 aminoacylation ribozyme variant]
Completion: 0.775

Prompt: Item: AUUACCAUGGUCAUCGAGUGG [Fam2.1 aminoacylation ribozyme variant]
Completion: 2.45

Prompt: Item: CUACUUCAAACAAUUGGUGUG [Fam1A.1 aminoacylation ribozyme variant]
Completion: 1.24

Prompt: Item: UUACUUCAAACAAUUGGUCUG [Fam1A.1 aminoacylation ribozyme variant]
Completion: 1.2

Prompt: Item: AUUACCCUGGUCAUCGAAUGA [Fam2.1 aminoacylation ribozyme variant]
Completion: 1.07

Prompt: Item: AAUUUUGCUAGUAGUCGCAAG [Fam3.1 aminoacylation ribozyme variant]
Completion: 1.77

Prompt: Item: GUAAUUCAAACAAUCGGUCUG [Fam1A.1 aminoacylation ribozyme variant]
Completion: 0.925

Prompt: Item: CAACACUUCAACCAAUCGGUC [Fam1B.1 aminoacylation ribozyme variant]
Completion: 1.58

Prompt: Item: AUACACCUAAGUCAUCGGGUG [Fam2.2 aminoacylation ribozyme variant]
Completion: 4.44

Prompt: Item: AUUCCCCUAGGUCGUCGGGUG [Fam2.2 aminoacylation ribozyme variant]
Completion: 7.13

Prompt: Item: AUUCACCUAGGUCCUCGGAUG [Fam2.2 aminoacylation ribozyme variant]
Completion: 0.966

Prompt: Item: CUACUUGAAACAAUCGGGCUG [Fam1A.1 aminoacylation ribozyme variant]
Completion: 1.95

Prompt: Item: AAGUUUCCUAGUAGUCGCAAG [Fam3.1 aminoacylation ribozyme variant]
Completion: 1.2

Prompt: Item: AUUCACCUAGGUGACCGGGUG [Fam2.2 aminoacylation ribozyme variant]
Completion: 3.84

Prompt: Item: AUUCACCAAGGUCAGCGGGUG [Fam2.2 aminoacylation ribozyme variant]
Completion: 4.83

Prompt: Item: AUUCACCUAGGUCCUCGGGGG [Fam2.2 aminoacylation ribozyme variant]
Completion: 2.98

Prompt: Item: CCAUACUUCAAGCAAUCGAUC [Fam1B.1 aminoacylation ribozyme variant]
Completion: 0.45

Prompt: Item: AAGUGUGCUAAUAGUAGCAAG [Fam3.1 aminoacylation ribozyme variant]
Completion: 1.02

Prompt: Item: CUACUUCAAACAACCGGGCUG [Fam1A.1 aminoacylation ribozyme variant]
Completion: 1.35

Prompt: Item: UUUACCCCGGUCAUCGAGUGA [Fam2.1 aminoacylation ribozyme variant]
Completion: 6.14

Prompt: Item: CAGUUUGGUAAUAGUCGCAAG [Fam3.1 aminoacylation ribozyme variant]
Completion: 1.73

Prompt: Item: AUUACCCUGGUGAUCGAGUGG [Fam2.1 aminoacylation ribozyme variant]
Completion: 1.79

Prompt: Item: AUCACGCUGGUCAUCGAGUGA [Fam2.1 aminoacylation ribozyme variant]
Completion: 6.1

Prompt: Item: AUUCACUUAGGUCAUCGGCUG [Fam2.2 aminoacylation ribozyme variant]
Completion: 1.47

Prompt: Item: CAGUUUGCUAAUAGACGCAAG [Fam3.1 aminoacylation ribozyme variant]
Completion: 0.814

Prompt: Item: AUUACCCUGGUCAGCGUGUGA [Fam2.1 aminoacylation ribozyme variant]
Completion: 5.28

Prompt: Item: ACUCACCUAGGUCAUCGGGUC [Fam2.2 aminoacylation ribozyme variant]
Completion: 2.24

Prompt: Item: CUACUUCAAACAAUCGGCUUG [Fam1A.1 aminoacylation ribozyme variant]
Completion: 1.1

Prompt: Item: CCACACUUCAAGCAAGUGGUC [Fam1B.1 aminoacylation ribozyme variant]
Completion: 0.43

Prompt: Item: CUACUUCGAACAAACGGUCUG [Fam1A.1 aminoacylation ribozyme variant]
Completion: 0.664

Prompt: Item: CUACUUGAAACGAUCGGUCUG [Fam1A.1 aminoacylation ribozyme variant]
Completion: 1.11

Prompt: Item: CCACACAUCAAGCAAUAGGUC [Fam1B.1 aminoacylation ribozyme variant]
Completion: 0.698

Prompt: Item: AUUGACCCAGGUCAUCGGGUG [Fam2.2 aminoacylation ribozyme variant]
Completion: 4.74

Prompt: Item: AUUACCCUGGUCAACGAGUAA [Fam2.1 aminoacylation ribozyme variant]
Completion: 1.19
